The values you see were collected from patent US7534871B2.

Test system: E. faecalis ATTC29212 LMG 8222
Test: Anti-bacterial activity, Bioscreen C growth curve: E. faecalis
Format: cell-based
Settings: Enterococcus faecalis, LMG8222, 35° C., 16 hours, negative control = 100, read-out: % of growth at 25 PPM compared to the negative control, E. faecalis ATTC29212 LMG 8222
Readout name: activity at 25 ppm (%)
Numeric answer only, unit % assumed.

These recorded examples may help you get a feel for the data.
CO[C@@H]1[C@@H](OC)[C@H](c2ccccc2)O[C@@H]2CO[C@@H](c3ccccc3)O[C@@H]12 [KPE00001015]; 86
CO[C@@H]1[C@@H](OC)[C@H](Cc2ccccc2)O[C@@H]2COC(=O)CC/C=C/CCC(=O)O[C@@H]12 [KPE00001022]; 96.1
CO[C@@H]1[C@@H](OC)[C@H](Sc2ccccc2)O[C@@H]2COC(=O)CCC(O)C(O)CCC(=O)O[C@@H]12 (some centres unmarked) [KPE00001007]; 97
CO[C@@H]1[C@@H](OC)[C@H](Sc2ccccc2)O[C@@H]2COC(=O)CCCC/C=C\CCCCC(=O)O[C@@H]12 [KPE00001016.2]; 98.4

Okay, now this molecule:
GET /values?readout=activity at 25 ppm&item= CO[C@@H]1[C@@H](OC)[C@H](Sc2ccccc2)O[C@@H]2COCCC/C=C\CCCO[C@@H]12 [KPE00001009.2]
85.5

---

The reader will find reported IC50 values listed item by item below.
Test system: CMV AD-169 strain
Assay: Anti-CMV activity: plaque reduction in HEL cells, AD-169 strain
Type: cell-based, human cytomegalovirus (CMV)
Settings: Human betaherpesvirus 5, AD169, HEL; Table 2; reduce virus plaque formation by 50%; virus input 100 PFU; read-out: IC50 CMV AD-169 Strain

Illustrative cases are given below, each with its answer.
CO[C@@H]1[C@@H](OC)[C@H](Sc2ccccc2)O[C@@H]2COC(=O)CCCC/C=C/CCCCC(=O)O[C@@H]12; 10 µg/mL
CO[C@@H]1[C@@H](OC)[C@H](Sc2ccccc2)O[C@@H]2COC(=O)CC/C=C/CCC(=O)O[C@@H]12; > 20 µg/mL

# evaluate next
Sample CO[C@@H]1[C@@H](OC)[C@H](c2ccccc2)O[C@@H]2COC(=O)CC/C=C/CCC(=O)O[C@@H]12 — what was its IC50?
> 20 µg/mL

---

Test system: S. typhimurium ATTC700408
Assay: Anti-bacterial activity, Bioscreen C growth curve: S. typhimurium
Format: cell-based
Settings: Salmonella enterica, LMG16217 / TYPHIMURIUM, 35° C., 16 hours, negative control = 100, read-out: % of growth at 25 PPM compared to the negative control, S. typhimurium ATTC700408 LMG16217
Readout name: activity at 25 ppm (%)
Just the number please, in %, no unit attached.

Worked cases, answers included:
CO[C@@H]1[C@@H](OC)[C@H](Sc2ccccc2)O[C@@H]2COCCC/C=C\CCCO[C@@H]12 [KPE00001009.2]; 90.1
CO[C@@H]1[C@@H](OC)[C@H](Cc2ccccc2)O[C@@H]2CO[C@@H](c3ccccc3)O[C@@H]12 [KPE00001019]; 94.3
CO[C@H]1[C@@H]2OC(=O)CCCCCCC(=O)OC[C@H]2OC[C@@H]1OC [KPE00001010]; 88.8
CO[C@@H]1[C@@H](OC)[C@H](c2ccccc2)O[C@@H]2COC(=O)CC/C=C/CCC(=O)O[C@@H]12 [KPE00001018]; 96.6
CO[C@@H]1[C@@H](OC)[C@H](Sc2ccccc2)O[C@@H]2COCC=CCO[C@@H]12 [KPE00001014]; 87.2

So what's the measured activity at 25 ppm for this one? CO[C@@H]1[C@@H](OC)[C@H](c2ccccc2)O[C@@H]2COC(=O)CCC3OC3CCC(=O)O[C@@H]12 (stereo partly drawn) [KPE00001039]
97

---

This listing pairs molecules with measured activity at 25 ppm.
Tested on: S. typhimurium ATTC700408
Assay: Anti-bacterial activity, Bioscreen C growth curve: S. typhimurium
Assay type: cell-based
Conditions: Salmonella enterica, LMG16217 / TYPHIMURIUM, 35° C., 16 hours, negative control = 100, read-out: % of growth at 25 PPM compared to the negative control, S. typhimurium ATTC700408 LMG16217
Description: For the determination of the anti-bacterial and anti-fungal activity the Bioscreen C Analyser Labsystems, Finland, was used. This is an automated reader-incubator. It measures growth continuously by vertical photometry (optical density), processes the data and provides a print out of the results. The area under the growth curve is automatically determined via the Biolink software. The inoculum size of the bacteria is standardized to approximately 5×10^5 CFU/ml. […]
Numbers only; they are read as %.

Worked examples follow.
CO[C@@H]1[C@@H](OC)[C@H](O)[C@@H](CO)O[C@H]1Cc1ccccc1; 92.3
CO[C@@H]1[C@@H](OC)[C@H](Sc2ccccc2)O[C@@H]2CNC(=O)CCC=CCCC(=O)O[C@@H]12; 96.6
CO[C@@H]1[C@@H](OC)[C@H](Sc2ccccc2)O[C@@H]2CNC(=O)CC/C=C/CCCO[C@@H]12; 98
CO[C@@H]1[C@@H](OC)[C@H](c2ccccc2)O[C@@H]2COC(=O)CCC=CCCC(=O)O[C@@H]12; 89
CO[C@@H]1[C@@H](OC)[C@H](O)[C@@H](CO)O[C@H]1Sc1ccccc1; 92.1

Read the next record carefully.
Fill in the blank: the reported activity at 25 ppm of O=C1CC/C=C/CCC(=O)O[C@H]2[C@H](OCc3ccccc3)[C@@H](OCc3ccccc3)[C@H](Sc3ccccc3)O[C@@H]2CO1 is ____.
91
